- Test system: Escherichia coli
- Assay Info: Antibacterial activity against chloroamphenicol/ampicillin/kanamycin/trimethoprim/ciprofloxacin/nalidixic acid-resistant Escherichia coli 85 assessed as growth inhibition after 18 to 24 hrs by broth microdilution method
- Format: functional
API: label(entry) gives Fulfilled if the entry's MIC90 is strictly smaller than 20 µg/mL; on equality or larger values it gives Not fulfilled.

Request: Say whether its MIC90 is strictly beneath 20 µg/mL. Entry: CCCN1CCN(c2ccc3nc(-c4ccc5nc(-c6ccc(OCC)cc6)[nH]c5c4)[nH]c3c2)CC1
Result: Fulfilled

Request: Say whether its MIC90 is strictly beneath 20 µg/mL. Entry: CCOc1ccc(-c2nc3ccc(-c4nc5ccc(N6CCN(CCN(C)C)CC6)cc5[nH]4)cc3[nH]2)cc1
Result: Not fulfilled

Request: Say whether its MIC90 is strictly beneath 20 µg/mL. Entry: COc1ccc(-c2nc3ccc(-c4nc5ccc(N6CCN(c7ccncc7)CC6)cc5[nH]4)cc3[nH]2)cc1OC
Result: Fulfilled

Request: Say whether its MIC90 is strictly beneath 20 µg/mL. Entry: CCOc1ccc(-c2nc3ccc(-c4nc5ccc(N6CCN(CC)CC6)cc5[nH]4)cc3[nH]2)cc1
Result: Fulfilled

Request: Say whether its MIC90 is strictly beneath 20 µg/mL. Entry: COc1ccc(-c2nc3ccc(-c4nc5ccc(N6CCN(c7ncccn7)CC6)cc5[nH]4)cc3[nH]2)cc1OC
Result: Not fulfilled

Request: Say whether its MIC90 is strictly beneath 20 µg/mL. Entry: CCCN1CCN(c2ccc3nc(-c4ccc5nc(-c6ccc(OC)c(OC)c6)[nH]c5c4)[nH]c3c2)CC1
Result: Fulfilled

====

Provide the recorded MIC50 for the entries that follow.
- Tested on: Escherichia coli
- Assay Info: Antibacterial activity against cefazolinl/ampicillin/piperacillin/cefuroxime/cefepime/cefotaxime/tetracycline/ciprofloxacin-resistant Escherichia coli NG3 isolated from water source assessed as growth inhibition after 18 to 24 hrs by broth microdilution method
The reply should be a number in mg/L, with the unit left off.

Request: Which measured MIC50 value corresponds to COc1ccc(-c2nc3ccc(-c4nc5ccc(N6CCN(c7ccncc7)CC6)cc5[nH]4)cc3[nH]2)cc1OC ?
Result: 1

Request: Which measured MIC50 value corresponds to CCOc1ccc(-c2nc3ccc(-c4nc5ccc(N6CCN(CCN(C)C)CC6)cc5[nH]4)cc3[nH]2)cc1 ?
Result: 8

Request: Which measured MIC50 value corresponds to CCOc1ccc(-c2nc3ccc(-c4nc5ccc(N6CCN(CC)CC6)cc5[nH]4)cc3[nH]2)cc1 ?
Result: 4

Request: Which measured MIC50 value corresponds to CCCN1CCN(c2ccc3nc(-c4ccc5nc(-c6ccc(OCC)cc6)[nH]c5c4)[nH]c3c2)CC1 ?
Result: 0.5

Request: Which measured MIC50 value corresponds to CCCN1CCN(c2ccc3nc(-c4ccc5nc(-c6ccc(OC)c(OC)c6)[nH]c5c4)[nH]c3c2)CC1 ?
Result: 4

Request: Which measured MIC50 value corresponds to COc1ccc(-c2nc3ccc(-c4nc5ccc(N6CCN(c7ncccn7)CC6)cc5[nH]4)cc3[nH]2)cc1OC ?
Result: 16

====

- Tested on: Escherichia coli
- Assay Info: Antibacterial activity against tetracycline/trimethoprim-resistant Escherichia coli IST isolated from water source assessed as growth inhibition after 18 to 24 hrs by broth microdilution method
Metric Name: log10 MIC50 (log10 of the value in µg/mL)
// units: µg/mL (pre-log); metric: MIC50; scale: log10

Request: Tell me reported log10 MIC50 for COc1ccc(-c2nc3ccc(-c4nc5ccc(N6CCN(c7ncccn7)CC6)cc5[nH]4)cc3[nH]2)cc1OC , tested with Escherichia coli.
Result: 1.20

Request: Tell me reported log10 MIC50 for COc1ccc(-c2nc3ccc(-c4nc5ccc(N6CCN(c7ccncc7)CC6)cc5[nH]4)cc3[nH]2)cc1OC , tested with Escherichia coli.
Result: -0.30

Request: Tell me reported log10 MIC50 for CCCN1CCN(c2ccc3nc(-c4ccc5nc(-c6ccc(OCC)cc6)[nH]c5c4)[nH]c3c2)CC1 , tested with Escherichia coli.
Result: -0.30

Request: Tell me reported log10 MIC50 for CCOc1ccc(-c2nc3ccc(-c4nc5ccc(N6CCN(CCN(C)C)CC6)cc5[nH]4)cc3[nH]2)cc1 , tested with Escherichia coli.
Result: 1.51

Request: Tell me reported log10 MIC50 for CCCN1CCN(c2ccc3nc(-c4ccc5nc(-c6ccc(OC)c(OC)c6)[nH]c5c4)[nH]c3c2)CC1 , tested with Escherichia coli.
Result: 0.90

Request: Tell me reported log10 MIC50 for CCOc1ccc(-c2nc3ccc(-c4nc5ccc(N6CCN(CC)CC6)cc5[nH]4)cc3[nH]2)cc1 , tested with Escherichia coli.
Result: 0.60

====

- Tested on: Escherichia coli
- Assay Info: Bactericidal activity against multidrug-resistant Escherichia coli IP9 isolated from water source by agar plating method
Metric Name: MBC (µg/mL)
The reply should be a number in µg/mL, with the unit left off.

Request: Which measured MBC value corresponds to CCOc1ccc(-c2nc3ccc(-c4nc5ccc(N6CCN(CC)CC6)cc5[nH]4)cc3[nH]2)cc1 ?
Result: 8

Request: Which measured MBC value corresponds to CCOc1ccc(-c2nc3ccc(-c4nc5ccc(N6CCN(CCN(C)C)CC6)cc5[nH]4)cc3[nH]2)cc1 ?
Result: 128

Request: Which measured MBC value corresponds to CCCN1CCN(c2ccc3nc(-c4ccc5nc(-c6ccc(OC)c(OC)c6)[nH]c5c4)[nH]c3c2)CC1 ?
Result: 16

Request: Which measured MBC value corresponds to COc1ccc(-c2nc3ccc(-c4nc5ccc(N6CCN(c7ccncc7)CC6)cc5[nH]4)cc3[nH]2)cc1OC ?
Result: 4

Request: Which measured MBC value corresponds to CCCN1CCN(c2ccc3nc(-c4ccc5nc(-c6ccc(OCC)cc6)[nH]c5c4)[nH]c3c2)CC1 ?
Result: 4

====

- Tested on: Escherichia coli
- Assay Info: Bactericidal activity against ampicillin/tetracycline/gentamicin-resistant Escherichia coli 451 by agar plating method
- Format: functional
Metric Name: MBC (µg/mL)
The reply should be a number in µg/mL, with the unit left off.

Request: Which measured MBC value corresponds to CCCN1CCN(c2ccc3nc(-c4ccc5nc(-c6ccc(OCC)cc6)[nH]c5c4)[nH]c3c2)CC1 ?
Result: 2

Request: Which measured MBC value corresponds to CCCN1CCN(c2ccc3nc(-c4ccc5nc(-c6ccc(OC)c(OC)c6)[nH]c5c4)[nH]c3c2)CC1 ?
Result: 8

Request: Which measured MBC value corresponds to CCOc1ccc(-c2nc3ccc(-c4nc5ccc(N6CCN(CCN(C)C)CC6)cc5[nH]4)cc3[nH]2)cc1 ?
Result: 64

Request: Which measured MBC value corresponds to COc1ccc(-c2nc3ccc(-c4nc5ccc(N6CCN(c7ncccn7)CC6)cc5[nH]4)cc3[nH]2)cc1OC ?
Result: 32

Request: Which measured MBC value corresponds to COc1ccc(-c2nc3ccc(-c4nc5ccc(N6CCN(c7ccncc7)CC6)cc5[nH]4)cc3[nH]2)cc1OC ?
Result: 4

Request: Which measured MBC value corresponds to CCOc1ccc(-c2nc3ccc(-c4nc5ccc(N6CCN(CC)CC6)cc5[nH]4)cc3[nH]2)cc1 ?
Result: 4

====

- System: Escherichia coli
- Assay Info: Bactericidal activity against Escherichia coli ATCC 25922 by agar plating method
- Assay type: functional
Metric Name: MBC (µg/mL)
The reply should be a number in µg/mL, with the unit left off.

Request: Which measured MBC value corresponds to CCOc1ccc(-c2nc3ccc(-c4nc5ccc(N6CCN(CC)CC6)cc5[nH]4)cc3[nH]2)cc1 ?
Result: 4

Request: Which measured MBC value corresponds to COc1ccc(-c2nc3ccc(-c4nc5ccc(N6CCN(c7ncccn7)CC6)cc5[nH]4)cc3[nH]2)cc1OC ?
Result: 64

Request: Which measured MBC value corresponds to CCOc1ccc(-c2nc3ccc(-c4nc5ccc(N6CCN(CCNC(=O)C(F)(F)F)CC6)cc5[nH]4)cc3[nH]2)cc1 ?
Result: 32

Request: Which measured MBC value corresponds to CCOc1ccc(-c2nc3ccc(-c4nc5ccc(N6CCN(CCN(C)C)CC6)cc5[nH]4)cc3[nH]2)cc1 ?
Result: 16

====

Provide the recorded MIC90 for the entries that follow.
- System: Escherichia coli
- Assay Info: Antibacterial activity against gentamicin/kanamycin/tetracycline/nalidixic acid-resistant Escherichia coli 360 assessed as growth inhibition after 18 to 24 hrs by broth microdilution method
- Type: functional
The reply should be a number in µg/mL, with the unit left off.

Request: Which measured MIC90 value corresponds to CCCN1CCN(c2ccc3nc(-c4ccc5nc(-c6ccc(OC)c(OC)c6)[nH]c5c4)[nH]c3c2)CC1 ?
Result: 15.2

Request: Which measured MIC90 value corresponds to CCOc1ccc(-c2nc3ccc(-c4nc5ccc(N6CCN(CC)CC6)cc5[nH]4)cc3[nH]2)cc1 ?
Result: 58.1

Request: Which measured MIC90 value corresponds to COc1ccc(-c2nc3ccc(-c4nc5ccc(N6CCN(c7ccncc7)CC6)cc5[nH]4)cc3[nH]2)cc1OC ?
Result: 1.7

Request: Which measured MIC90 value corresponds to CCOc1ccc(-c2nc3ccc(-c4nc5ccc(N6CCN(CCN(C)C)CC6)cc5[nH]4)cc3[nH]2)cc1 ?
Result: 121

Request: Which measured MIC90 value corresponds to CCCN1CCN(c2ccc3nc(-c4ccc5nc(-c6ccc(OCC)cc6)[nH]c5c4)[nH]c3c2)CC1 ?
Result: 1.6
